experiment: DLS size of dendrimersomes assembled from glycerol-JDs in water at different concentrations; assay type: physicochemical; details: JD 0.3 mg·mL−1 in water; size distribution by intensity
Reported Dh (nm) is given for each of the following compounds.

{"compound": "CCCCCCCCCCCCOc1cc(OCCCCCCCCCCCC)cc(C(=O)OCC(C)(COC(=O)c2cc(OCCCCCCCCCCCC)cc(OCCCCCCCCCCCC)c2)C(=O)OC[C@H](COC(=O)c2cc(OCCOCCOCCOC)c(OCCOCCOCCOC)c(OCCOCCOCCOC)c2)OC(=O)c2cc(OCCOCCOCCOC)c(OCCOCCOCCOC)c(OCCOCCOCCOC)c2)c1 [Compound 2S, (3,5)-12G1-BMPA-GC-(S)-(3,4,5)-3EO-G1]", "Dh (nm)": 153}
{"compound": "CCCCCCCCCCCCOc1cc(OCCCCCCCCCCCC)cc(C(=O)OCC(C)(COC(=O)c2cc(OCCCCCCCCCCCC)cc(OCCCCCCCCCCCC)c2)C(=O)OC[C@@H](COC(=O)c2cc(OCCOCCOCCOC)c(OCCOCCOCCOC)c(OCCOCCOCCOC)c2)OC(=O)c2cc(OCCOCCOCCOC)c(OCCOCCOCCOC)c(OCCOCCOCCOC)c2)c1 [Compound 2R, (3,5)-12G1-BMPA-GC-(R)-(3,4,5)-3EO-G1]", "Dh (nm)": 152}
{"compound": "CCCCCCCCCCCCOc1cc(OCCCCCCCCCCCC)cc(C(=O)OC[C@@H](COC(=O)C(C)(COC(=O)c2cc(OCCOCCOCCOC)c(OCCOCCOCCOC)c(OCCOCCOCCOC)c2)COC(=O)c2cc(OCCOCCOCCOC)c(OCCOCCOCCOC)c(OCCOCCOCCOC)c2)OC(=O)c2cc(OCCCCCCCCCCCC)cc(OCCCCCCCCCCCC)c2)c1 [Compound 1S, (3,5)-12G1-GC-(S)-BMPA-(3,4,5)-3EO-G1]", "Dh (nm)": 147}

====

assay: Dimensions (size, PDI) of DNPs co-assembled from IAJDs and Luc-mRNA by DLS; type: physicochemical; settings: Table 14; DNPs, IAJD 4 mg/mL + Luc-mRNA 0.10 mg/mL, acetate buffer pH 4.0
List of PDI values.

{"molecule": "CCCCC(CC)COc1cc(COC(=O)CCCN2CCN(C)CC2)cc(OCC(CC)CCCC)c1 (stereo not shown)", "PDI": 0.287}
{"molecule": "CCCCC(CC)COC(=O)CCCCOc1cc(COC(=O)CCCN2CCN(CCO)CC2)cc(OCCCCC(=O)OCC(CC)CCCC)c1 (stereo not shown)", "PDI": 0.352}
{"molecule": "CCCCCCCCCCCCCCCCCCOc1cc(COC(=O)CCCN2CCN(C)CC2)cc(OCCCCCCCCCCC)c1", "PDI": 0.287}
{"molecule": "CCCCCCCCCCOc1cc(COC(=O)CCCN2CCN(CCO)CC2)cc(OCCCCCCCCCC)c1", "PDI": 0.498}

====

test: Stability of DNPs by DLS after storage at 5° C.; assay type: physicochemical; conditions: after 21 days at 5° C.; IAJD 4.0 mg/mL + Luc-mRNA 0.1 mg/mL, acetate buffer
# key: entry, value: Size (d, nm)

{"molecule": "CCCCCCCCCCCCCCCCOc1cc(COC(=O)CCCN2CCN(C)CC2)cc(OCCCCCCCCCCCCC)c1", "readout_units": "nm", "Size (d, nm)": 132}
{"molecule": "CCCCCCCCCCCCCOc1cc(COC(=O)CCCN2CCN(C)CC2)cc(OCC(CC)CCCC)c1 (stereo not drawn)", "readout_units": "nm", "Size (d, nm)": 125}
{"molecule": "CCCCCCCCCCCCCCOc1cc(COC(=O)CCCN2CCN(C)CC2)cc(OCCCCCCCCCCCCC)c1", "readout_units": "nm", "Size (d, nm)": 175}
{"molecule": "CCCCCCCCCCCCCOc1cc(COC(=O)CCCN2CCN(CCO)CC2)cc(OCC(CC)CCCC)c1 (stereo not drawn)", "readout_units": "nm", "Size (d, nm)": 182}
{"molecule": "CCCCCCCCCCCCCCCCCCOc1cc(COC(=O)CCCN2CCN(CCO)CC2)cc(OCCCCCCCCCCCCC)c1", "readout_units": "nm", "Size (d, nm)": 261}
{"molecule": "CCCCCCCCCCCCCCCCCCOc1cc(COC(=O)CCCN2CCN(C)CC2)cc(OCCCCCCCCCCCCC)c1", "readout_units": "nm", "Size (d, nm)": 153}

Value source: patent US20240252677A1
